MEASURED_QUANTITY: melting point

### Prompt Reported melting point for CC(C)C[C@H](O)[C@H](O)[C@H](Cc1ccccc1)NC(=O)OC(C)(C)C : what is it?
### Response 128 to 130 °C

### Prompt Reported melting point for Nc1cc(C(F)(F)F)cc2nc3c4ccccc4c4ccccc4c3nc12 : what is it?
### Response 194 to 195 °C

### Prompt Reported melting point for CC(NC(=O)c1sc2ccc(C(F)(F)F)cc2c1O)C(O)(c1ccccc1)c1ccccc1 (stereo not given) : what is it?
### Response 129 to 130 °C

### Prompt Reported melting point for COC1CCN(Cc2ccc(COc3cccc4c3CN(C3CCC(=O)NC3=O)C4=O)cc2)CC1 (stereo not given) : what is it?
### Response 149 to 151 °C

### Prompt Reported melting point for N#Cc1ccc2nc(-c3cccc(Br)c3)cn2c1 : what is it?
### Response 205 to 206 °C

### Prompt Reported melting point for CC(C)Oc1ccccc1-c1nc2ccc(C(=O)O)cc2c(=O)[nH]1 : what is it?
### Response 316 to 318 °C

### Prompt Reported melting point for OC(CCc1ccc2ccccc2c1)Cn1ccnc1 (stereo not given) : what is it?
### Response 122 to 124 °C

### Prompt Reported melting point for CCCCC(C)OC(=O)c1ccccc1S(=O)(=O)NC(=O)Nc1nc(C)nc(OC)n1 (stereo not given) : what is it?
### Response 125 to 130 °C

### Prompt Reported melting point for CCOC(=O)c1cn(C2COC2)c2cc(F)c(F)cc2c1=O : what is it?
### Response 177 to 178 °C

### Prompt Reported melting point for CCC1=NNC(C)=C(C(=O)OCCOC(C)C)C1c1cccc([N+](=O)[O-])c1 (stereo not given) : what is it?
### Response 84 °C

* * *

Kindly supply the reported melting point values for the records listed here.

### Prompt Reported melting point for OC(c1ccccc1)c1nc(-c2ccncc2)cs1 (centres undefined) : what is it?
### Response 146 to 147 °C

### Prompt Reported melting point for CCCn1nc2c(N)nc3ccccc3c2c1CCCC1=CCN(Cc2ccccc2)C1 : what is it?
### Response 150 to 152 °C

### Prompt Reported melting point for CCCCCCCCCCCCCCCCCCOc1cc(OC(=O)C(c2ccccc2)c2ccccc2)cc(C(=O)OCc2ccccc2)c1 : what is it?
### Response 47 to 49 °C

### Prompt Reported melting point for CCCCC(CC)n1nnc2c(Nc3c(Cl)cc(OC)cc3OC)nc(C)cc21 (centres undefined) : what is it?
### Response 155 to 156 °C

### Prompt Reported melting point for CC(C)n1nc(-c2c(-c3ccccc3)nn3ccc(OCc4ccncc4)cc23)ccc1=O : what is it?
### Response 218 to 220 °C

### Prompt Reported melting point for CCCCc1nn(-c2cc(NC(=O)CC)ccc2Cl)c(=O)n1Cc1ccc(-c2ccccc2S(=O)(=O)NC(=O)c2c(F)cccc2Cl)cc1F : what is it?
### Response 200 to 203 °C

### Prompt Reported melting point for O=S(=O)(/C=C/c1ccc(Cl)cc1)Nc1ccc(F)cc1 : what is it?
### Response 105 to 107 °C

### Prompt Reported melting point for COC(=O)c1ccc(CCc2nc(-c3ccccc3)c(C)s2)cc1 : what is it?
### Response 52 to 53 °C

### Prompt Reported melting point for CN(C)C(=O)CCC12CC(c3ccccc31)c1ccccc12 : what is it?
### Response 186 to 187 °C

* * *

Kindly supply the reported melting point values for the records listed here.

### Prompt Reported melting point for CCCc1nc2c(C)ccnc2n1Cc1ccc2[nH]ccc2c1 : what is it?
### Response 110 to 112 °C

### Prompt Reported melting point for COc1cc2c(cc1OC)CC(O)(CC(=O)O)CC2 (stereo not given) : what is it?
### Response 100 to 102 °C

### Prompt Reported melting point for O=C(O)c1ccccc1CNC1CCOC1=O (stereo not given) : what is it?
### Response 112 to 114 °C

### Prompt Reported melting point for COc1ccc(CCN2COc3c(cccc3OC)C2)cc1 : what is it?
### Response 69 to 70 °C

### Prompt Reported melting point for CC(=O)c1ccc2c(c1)C(=C1CCN(C)CC1)c1ccccc1S2 : what is it?
### Response 125 to 127 °C

### Prompt Reported melting point for O=C(NCc1ccccn1)Nc1cc(-n2cc(-c3ccccc3)oc2=O)ccn1 : what is it?
### Response 208 to 209 °C

### Prompt Reported melting point for CN(C)S(=O)(=O)c1cc2[nH]c(=O)c(=O)[nH]c2cc1[N+](=O)[O-] : what is it?
### Response 318 to 332 °C

### Prompt Reported melting point for CCNS(=O)(=O)c1ccc(-c2cnc3[nH]c(CCc4cc(OC)ccn4)nc3c2)cc1 : what is it?
### Response 214 to 216 °C

### Prompt Reported melting point for CCCCc1cn(CC(C)(C)C)c(=O)n1Cc1ccc(-c2ccccc2-c2nnn[nH]2)nc1 : what is it?
### Response 194 to 195 °C

### Prompt Reported melting point for COc1cc(OC)nc(Oc2cccc(OC(F)F)c2C(=O)O)n1 : what is it?
### Response 113 to 115 °C

* * *

MEASURED_QUANTITY: melting point

### Prompt Reported melting point for CCOC(=O)CCc1cc(C(=O)CCCC(=O)O)ccc1OC : what is it?
### Response 124 to 126 °C

### Prompt Reported melting point for CCCCCCCCCCCCCCOc1ccc(C(=O)NCc2ccccn2)cc1 : what is it?
### Response 91 to 93 °C

### Prompt Reported melting point for CNC(=S)NN=C(CCCCl)c1ccccc1 : what is it?
### Response 94 to 96 °C

### Prompt Reported melting point for Clc1cc(N2CCC3(CC2)OCCO3)nc(N2CCC3(CC2)OCCO3)n1 : what is it?
### Response 130 to 131 °C

### Prompt Reported melting point for CC1(CC(=O)O)SCCC2=C1Cc1ccccc12 (stereo unspecified) : what is it?
### Response 119 to 121 °C

### Prompt Reported melting point for CN(C)CCc1cccc2ccc(-c3ccccc3CNS(C)(=O)=O)cc12 : what is it?
### Response 151 to 154 °C

### Prompt Reported melting point for O=S1(=O)c2cccc3cccc(c23)N1CCN1CCC(Cc2c[nH]c3ccc(F)cc23)CC1 : what is it?
### Response 161 °C

### Prompt Reported melting point for COc1cc(Nc2c(C#N)cnc3cc(Br)ccc23)c(Cl)cc1F : what is it?
### Response 200 to 202 °C

### Prompt Reported melting point for Cc1cc(C)cc(C(=O)c2c(C(C)C)c(=O)[nH]c(=O)n2C/C=C/CCl)c1 : what is it?
### Response 178 to 179 °C

### Prompt Reported melting point for CC(=O)Oc1ccc(-c2ccc(C=C(Br)Br)s2)cc1 : what is it?
### Response 115 to 116 °C

### Prompt Reported melting point for O=C(CSC(=S)N1Cc2[nH]c3ccccc3c2CC1C(=O)O)c1ccccc1 (stereo unspecified) : what is it?
### Response 116 °C

### Prompt Reported melting point for CCOc1ccncc1NS(=O)(=O)c1nc2cc(C)nc(OC)n2n1 : what is it?
### Response 184 to 186 °C

### Prompt Reported melting point for CC(C)N(CCC12CC3CC(CC(C3)C1)C2)C(=O)NCCCc1ccncc1 : what is it?
### Response 132 to 134 °C

### Prompt Reported melting point for O=C1c2ccccc2CN1CCCN1CC=C(c2ccccc2)CC1 : what is it?
### Response 104 °C

### Prompt Reported melting point for CCCCC(=O)Nc1cccc2c1C(=O)N(C1(C)CCC(=O)NC1=O)C2=O (stereo unspecified) : what is it?
### Response 190 to 192 °C

### Prompt Reported melting point for CCCc1nc2c(N)nc3cc(OCc4ccc(C(C)(C)C)cc4)ccc3c2n1CC(C)C : what is it?
### Response 204 to 205 °C

### Prompt Reported melting point for COc1ccc(OCCCCCN2CCN(Sc3ccc[nH]3)CC2)cc1 : what is it?
### Response 83 to 85 °C

### Prompt Reported melting point for CCCCCOc1ccc(C=O)cc1OCCCCC : what is it?
### Response 31 to 32.5 °C

### Prompt Reported melting point for C=C=COc1ccccc1S(N)(=O)=O : what is it?
### Response 94 to 95 °C

### Prompt Reported melting point for CCC(=O)c1cc(C(=O)O)c2cc(Cc3ccc(F)cc3)cnc2c1O : what is it?
### Response 235 to 237 °C

### Prompt Reported melting point for COc1ccc(S(=O)(=O)C(CCCCOc2ccccc2)(Cc2cccnc2)C(=O)O)cc1 (stereo unspecified) : what is it?
### Response 148 to 151 °C

### Prompt Reported melting point for CCNS(=O)(=O)c1cc(C)c2cc(C(C)C)ccc(C)c1-2 : what is it?
### Response 96 to 98 °C

### Prompt Reported melting point for c1ccc2c(c1)CCN(CCSc1ccnc(CSc3nc4ccccc4[nH]3)c1)C2 : what is it?
### Response 125 to 127 °C

### Prompt Reported melting point for O=C(CCl)Nc1ccc2c(c1NC(=O)c1cccc(F)c1)C(=O)c1ccccc1C2=O : what is it?
### Response 197 to 198 °C

### Prompt Reported melting point for CC1=CC(OC(=O)C=Cc2ccc(O)cc2)C(O)C(C)(C)CC1=O (stereo unspecified) : what is it?
### Response 176 to 177 °C

### Prompt Reported melting point for CC(C)(O)Cn1c(CONC(=O)C2CC2)nc2c(N)nc3ccccc3c21 : what is it?
### Response 209 to 210 °C

### Prompt Reported melting point for CSCC[C@H](NC(=O)Cc1cc(F)cc(F)c1)C(=O)N[C@@H]1C(=O)Nc2ccccc2S[C@@H]1c1ccccc1 : what is it?
### Response 85 to 90 °C

### Prompt Reported melting point for CCCCCCCC(O)CNCCCCCCNCC(O)CCCCCCC (stereo unspecified) : what is it?
### Response 122 to 129 °C

### Prompt Reported melting point for CC(C)(C)OC(=O)N1CCC(C2=C(C#N)C(c3ccccc3Cl)c3c[nH]nc3N2)CC1 (stereo unspecified) : what is it?
### Response > 280 °C

### Prompt Reported melting point for O=C1Nc2cc(F)ccc2OC1CCO (stereo unspecified) : what is it?
### Response 126 to 130 °C

### Prompt Reported melting point for CC(=O)CC(=O)Nc1ccc(-c2ncn(-c3ccc(OC(F)(F)F)cc3)n2)cc1 : what is it?
### Response 159 to 164 °C

### Prompt Reported melting point for CCc1ccc(S(=O)(=O)Nc2cccnc2Nc2ccccc2)cc1 : what is it?
### Response 138 to 139 °C

### Prompt Reported melting point for CCCCN(C1c2cc(OCc3ccccc3)ccc2OC(C)(C)C1O)S(C)(=O)=O (stereo unspecified) : what is it?
### Response 159 to 160 °C

### Prompt Reported melting point for Nc1nc(-c2ccc(Cl)cc2)c(CCO)c2ncnn12 : what is it?
### Response 207 to 208 °C

### Prompt Reported melting point for CCCCCCCCCCCCCCCCCCOc1ccc(O)c(C(=O)N(CC(=O)O)CC(=O)O)c1 : what is it?
### Response 128 to 132 °C

### Prompt Reported melting point for O=C(O)/C=C/c1ccc(C(=O)NC2CCCCC2)cc1 : what is it?
### Response 214 °C

### Prompt Reported melting point for COc1ccc(CS(=O)(=O)c2cc(OC)c(OC)c(OC)c2)cc1 : what is it?
### Response 95 to 97 °C

### Prompt Reported melting point for Nc1cc(C(=O)O)ccc1OCCCCCCc1cccc(O)c1O : what is it?
### Response 172 to 174 °C

### Prompt Reported melting point for CC(C)(C)CNc1nnc(-c2ccccc2)c2ccccc12 : what is it?
### Response 216 °C

### Prompt Reported melting point for Cn1ccc(-c2ccc(C(=O)O)c(Cl)c2)n1 : what is it?
### Response 232 to 233 °C

### Prompt Reported melting point for CCOP(=O)(OCC)c1c(C)c2c(c(C)c1-c1c(OC)ccc3ccccc13)CN(S(=O)(=O)c1ccc(C)cc1)C2 : what is it?
### Response 58 to 60 °C
